Assay: activity coefficient (dimensionless); of the first substance listed, at infinite dilution; xn = mol fraction of the nth substance listed
Conditions: 348.15 K; 101 kPa; Liquid; Chromatography; x1 = 0
Entry flag: true if activity coefficient reaches 8; false if it does not.

Study these solved cases before continuing.
Request: activity coefficient >= 8 for CCOCC [diethyl ether] + CCn1cc[n+](C)c1.CS(=O)(=O)[O-] ?
Result: true

Request: Record C=CCCCCCC [oct-1-ene] + CCn1cc[n+](C)c1.CS(=O)(=O)[O-] ; criterion: activity coefficient no lower than 8. Met?
Result: true

Request: State whether the measured activity coefficient reaches 8, counting equality as reaching it, for CCCCCCCCCC [decane] + CCn1cc[n+](C)c1.CS(=O)(=O)[O-]
Result: true

Request: Please indicate if the recorded activity coefficient for CC(C)OC(C)C [diisopropyl ether] + CCn1cc[n+](C)c1.CS(=O)(=O)[O-] meets or exceeds 8.
Result: true

Continuing:
Request: Quick check, activity coefficient >= 8? C1CCOC1 [tetrahydrofuran] + CCn1cc[n+](C)c1.CS(=O)(=O)[O-]
Result: false

Request: Does activity coefficient meet or surpass 8 for C=Cc1ccccc1 [styrene] + CCn1cc[n+](C)c1.CS(=O)(=O)[O-] ?
Result: false

Request: Record CCC(=O)CC [pentan-3-one] + CCn1cc[n+](C)c1.CS(=O)(=O)[O-] ; criterion: activity coefficient no lower than 8. Met?
Result: false

Request: Check if activity coefficient >= 8 (inclusive). Item: c1ccsc1 [thiophene] + CCn1cc[n+](C)c1.CS(=O)(=O)[O-]
Result: false

Request: Please indicate if the recorded activity coefficient for CCCOCCC [dipropyl ether] + CCn1cc[n+](C)c1.CS(=O)(=O)[O-] meets or exceeds 8.
Result: true

* * *

Test: activity coefficient (dimensionless); of the first substance listed, at infinite dilution; xn = mol fraction of the nth substance listed
Conditions: 328.15 K; 101 kPa; Liquid; Chromatography; x1 = 0
Entry flag: fulfilled if activity coefficient reaches 6; not fulfilled if it does not.

Request: Reported activity coefficient at or above 6? C=C(C)c1ccccc1 [(1-methylethenyl)benzene] + CCn1cc[n+](C)c1.CS(=O)(=O)[O-]
Result: fulfilled

Request: Hi team, for C1CCCCCC1 [cycloheptane] + CCn1cc[n+](C)c1.CS(=O)(=O)[O-] , is the recorded activity coefficient at or above 6?
Result: fulfilled

Request: Reported activity coefficient at or above 6? Cc1ccccc1C [1,2-dimethylbenzene] + CCn1cc[n+](C)c1.CS(=O)(=O)[O-]
Result: fulfilled

Request: Has C=Cc1ccccc1 [styrene] + CCn1cc[n+](C)c1.CS(=O)(=O)[O-] a recorded activity coefficient greater than or equal to 6?
Result: not fulfilled

Request: Is activity coefficient for c1ccncc1 [pyridine] + CCn1cc[n+](C)c1.CS(=O)(=O)[O-] at or above 6?
Result: not fulfilled

* * *

Assay: activity coefficient (dimensionless); of the first substance listed, at infinite dilution; xn = mol fraction of the nth substance listed
Conditions: 318.15 K; 101 kPa; Liquid; Chromatography; x1 = 0
Below is a list of entries, each paired with its recorded activity coefficient value.
Respond numerically, and do not add a unit to the figure.

Request: What activity coefficient value was documented for this compound, C1CCCCCC1 [cycloheptane] + CCn1cc[n+](C)c1.CS(=O)(=O)[O-] ?
Result: 99.8

Request: Bench note: what activity coefficient did CCC(=O)CC [pentan-3-one] + CCn1cc[n+](C)c1.CS(=O)(=O)[O-] show?
Result: 7.96

Request: Query (compound): C1CCCCCCC1 [cyclooctane] + CCn1cc[n+](C)c1.CS(=O)(=O)[O-] ; field requested: activity coefficient
Result: 143

Request: Which activity coefficient is reported for this compound? C=CCCCCCCCC [1-decene] + CCn1cc[n+](C)c1.CS(=O)(=O)[O-]
Result: 584

Request: Which activity coefficient value belongs to C=CCCCCCC [oct-1-ene] + CCn1cc[n+](C)c1.CS(=O)(=O)[O-] ?
Result: 228

Request: Name the reported activity coefficient value associated with the compound CCCOCCC [dipropyl ether] + CCn1cc[n+](C)c1.CS(=O)(=O)[O-]
Result: 72.7

Others:
Request: Give the measured activity coefficient of CCCCCCCC [octane] + CCn1cc[n+](C)c1.CS(=O)(=O)[O-] .
Result: 505

Request: Data request, read-out activity coefficient, for CO [methanol] + CCn1cc[n+](C)c1.CS(=O)(=O)[O-]
Result: 0.225

Request: Which activity coefficient is listed for C=CCCCC [hex-1-ene] + CCn1cc[n+](C)c1.CS(=O)(=O)[O-] ?
Result: 77.1

* * *

Assay: activity coefficient (dimensionless); of the first substance listed, at infinite dilution; xn = mol fraction of the nth substance listed
Conditions: 308.15 K; 101 kPa; Liquid; Chromatography; x1 = 0
Measured Metric: activity coefficient
Just the number, please.

Worked examples follow.
Request: Given the compound Cc1ccccc1 [toluene] + CCn1cc[n+](C)c1.CS(=O)(=O)[O-] , what is its reported activity coefficient?
Result: 9.13

Request: Consider the compound c1ccsc1 [thiophene] + CCn1cc[n+](C)c1.CS(=O)(=O)[O-] and give its measured activity coefficient.
Result: 1.87

Request: For C=CCCCC [hex-1-ene] + CCn1cc[n+](C)c1.CS(=O)(=O)[O-] , what is its reported activity coefficient?
Result: 85.1

Request: I am curious: what activity coefficient value has been reported for CCCOCCC [dipropyl ether] + CCn1cc[n+](C)c1.CS(=O)(=O)[O-] ?
Result: 80.3

***
Request: Could you tell me which activity coefficient is on file for C1CCOC1 [tetrahydrofuran] + CCn1cc[n+](C)c1.CS(=O)(=O)[O-] ?
Result: 5.42

Request: I'd like to know its activity coefficient. The compound in question is Cc1cccc(C)c1 [1,3-dimethylbenzene] + CCn1cc[n+](C)c1.CS(=O)(=O)[O-]
Result: 19.7

Request: // query activity coefficient value for entry COC(C)(C)C [2-methoxy-2-methylpropane] + CCn1cc[n+](C)c1.CS(=O)(=O)[O-]
Result: 23.6

Request: Using the record for CCC(C)(C)OC [2-methoxy-2-methylbutane] + CCn1cc[n+](C)c1.CS(=O)(=O)[O-] , report its activity coefficient.
Result: 40.3

Request: Data request, read-out activity coefficient, for C1CCCCC1 [cyclohexane] + CCn1cc[n+](C)c1.CS(=O)(=O)[O-]
Result: 83.6

Request: Which activity coefficient is reported for this compound? CO [methanol] + CCn1cc[n+](C)c1.CS(=O)(=O)[O-]
Result: 0.223

Request: For Cc1ccccc1C [1,2-dimethylbenzene] + CCn1cc[n+](C)c1.CS(=O)(=O)[O-] , what is its reported activity coefficient?
Result: 15

Request: Endpoint output: activity coefficient of CCC(=O)CC [pentan-3-one] + CCn1cc[n+](C)c1.CS(=O)(=O)[O-] . Value?
Result: 8.08

Request: Reported activity coefficient for C=C(C)c1ccccc1 [(1-methylethenyl)benzene] + CCn1cc[n+](C)c1.CS(=O)(=O)[O-] : what is it?
Result: 10.7

Request: Need activity coefficient, item CC(C)=O [acetone] + CCn1cc[n+](C)c1.CS(=O)(=O)[O-]
Result: 308

* * *

Assay: activity coefficient (dimensionless); of the first substance listed, at infinite dilution; xn = mol fraction of the nth substance listed
Details: 348.15 K; 101 kPa; Liquid; Chromatography; x1 = 0
Short version: activity coefficient at least 50 is satisfied, less is not satisfied.

Here's what some known entries look like.
Request: // inclusive: activity coefficient at least 50? input: CCCC(C)=O [pentan-2-one] + CCn1cc[n+](C)c1.CS(=O)(=O)[O-]
Result: not satisfied

Request: Confirm if activity coefficient reported for the molecule COC(C)(C)C [2-methoxy-2-methylpropane] + CCn1cc[n+](C)c1.CS(=O)(=O)[O-] is 50 or above.
Result: not satisfied

Request: Determine whether this molecule has activity coefficient no lower than 50: Cc1ccc(C)cc1 [1,4-dimethylbenzene] + CCn1cc[n+](C)c1.CS(=O)(=O)[O-]
Result: not satisfied

Request: Given C1CCCCCC1 [cycloheptane] + CCn1cc[n+](C)c1.CS(=O)(=O)[O-] , state whether its activity coefficient is at least 50.
Result: satisfied

***
Request: Is activity coefficient at least 50? Consider c1ccccc1 [benzene] + CCn1cc[n+](C)c1.CS(=O)(=O)[O-]
Result: satisfied

Request: State whether the measured activity coefficient reaches 50, counting equality as reaching it, for CC(C)=O [acetone] + CCn1cc[n+](C)c1.CS(=O)(=O)[O-]
Result: satisfied

Request: Answer whether activity coefficient of C#CCCCC [1-hexyne] + CCn1cc[n+](C)c1.CS(=O)(=O)[O-] is greater than or equal to 50.
Result: not satisfied

Request: activity coefficient >= 50 for CC#N [acetonitrile] + CCn1cc[n+](C)c1.CS(=O)(=O)[O-] ?
Result: not satisfied
